Kindly state GI50 for each of the entries shown.
- Test system: OVCAR-3 ovarian
- test-protocol: NCI tumour cell line growth inhibition, 48 h

Exercise: Complete the entry with GI50 for CCCCN(CCCC)CC(C)(C)C(O)c1ccc(OC)c2ccccc12 (stereo not given)
Key: 2.84 µM

Exercise: Respond only with GI50 recorded for CCCCCCCCCCCCOC1C(C(COC2OC(C(O)CN3CCCCC3)C3OC(C)(C)OC23)NC(=O)Nc2ccccc2)OC2OC(C)(C)OC21 (stereo not given)
Key: 14.7 µM

Exercise: Output GI50 of COc1ccc(NC(=O)Nc2ccc(Nc3nc(C)cc(Nc4ccc(C)cc4)n3)cc2)cc1
Key: 1.35 µM

Exercise: Specify GI50 for C[C@@]1(c2ncncc2F)NC(=O)c2cc(-c3cn[nH]c3)ccc21 and stop.
Key: 21.9 µM

Exercise: Specify reported GI50 for the molecule shown: COc1cc(-c2nc(SCC(=O)Nc3ccc(C(C)=O)cc3)[nH]c(=O)c2C#N)cc(OC)c1OC
Key: 34 µM

* * *

- Test system: KM12 colon
- test-protocol: NCI tumour cell line growth inhibition, 48 h; in the data active means GI50 below about 0.43 µM; inactive means the rest
Hi! Could you answer with just one of these? true (1) = active, false (0) = inactive

Exercise: Per the records of this test, what outcome belongs to O=C1/C(=C/c2ccc([N+](=O)[O-])s2)Oc2ccccc21 ?
Key: true (1)

Exercise: Identify the outcome logged in this assay for the compound shown: CCOC(=O)c1cc2cc(NC(=O)c3cc4cc([N+](=O)[O-])ccc4n3C)ccc2n1C
Key: false (0)

Exercise: Hi, sorry to bother you, what did the test record for Cc1ccccc1-n1c(/C=C\c2ccccn2)nc2ccccc2c1=O ?
Key: false (0)

Exercise: Test call, this compound: O=C(Nc1cccc2cccnc12)c1ccc(N2C(=O)[C@@H]3[C@H](C2=O)[C@@H]2C=C[C@H]3C2)cc1
Key: false (0)

Exercise: # lookup: test call for COc1ccc(OC)c(-c2cc(-c3ccccc3)nn2-c2ccc(S(N)(=O)=O)cc2)c1
Key: false (0)

Exercise: For this compound, state the assay outcome: COc1cc(/C=C2\CC3C4CC=C5C[C@@H](N6CCCC6)CC[C@]5(C)C4CC[C@]3(C)[C@H]2OC(C)=O)ccc1OCCN1CCCCC1 (stereo partly drawn)
Key: false (0)

Exercise: Please share the test call associated with CCCCCC(=O)OCC(=O)O[C@@H]1C[C@]2(C(C)C)O[C@@]1(C)[C@@H]1CC[C@@H](C)[C@H]1[C@@H]2OC(=O)/C=C/c1ccccc1 .
Key: false (0)

Exercise: Outcome? CCCCCCCCCCCCOC1C(C(COC2OC(C(O)CN3CCCCC3)C3OC(C)(C)OC23)NC(=O)Nc2ccccc2)OC2OC(C)(C)OC21 (stereo not drawn)
Key: false (0)

* * *

- Tested on: NCI-H522 lung
- test-protocol: NCI tumour cell line growth inhibition, 48 h
readout-name: TGI

Exercise: Give the measured TGI for CCOC(=O)c1cc2cc(NC(=O)c3cc4cc([N+](=O)[O-])ccc4n3C)ccc2n1C
Key: > 100 µM

Exercise: Determine from records and report TGI for COC(=O)/C(C#N)=C1\NC(=O)CC(c2ccccc2)C1C#N (stereo unspecified)
Key: > 100 µM

Exercise: Give the measured TGI for Cc1nccc2c1cnc1ccnn12
Key: > 100 µM

Exercise: Supply TGI value. Item: C#CCCOC1(OC)N=NC(C)(C)O1 (stereo unspecified)
Key: > 100 µM

Exercise: Quick one: give measured TGI for COc1cc2ccc1-c1cc(ccc1O)CC1c3cc4c(cc3CCN1C)Oc1c(OC)cc3c(c1O4)C(C2)N(C)CC3 (stereo unspecified)
Key: 3.2 µM

Exercise: Give reported TGI value for O=C(CCC(=O)N/N=C/c1ccccc1O)N/N=C/c1ccccc1O
Key: > 100 µM

Exercise: Supply measured TGI of O=c1oc2ccccc2cc1-c1nnc(-c2ccccc2)s1 in your reply.
Key: > 100 µM

Exercise: Supply recorded TGI for CC(C)C[C@H](NC(=O)CCc1ccccc1)B(O)O here.
Key: 31.1 µM

Exercise: State its TGI for this compound: C[C@@]1(c2ncncc2F)NC(=O)c2cc(-c3cn[nH]c3)ccc21
Key: > 100 µM

Exercise: Identify measured TGI associated with Cc1ccc2[nH]c(C(=O)NN3C(=O)CSC34CCCC(C)C4)c(-c3ccccc3)c2c1 (stereo unspecified)
Key: 25.6 µM

Exercise: Identify measured TGI associated with CN(C)c1ccc(/C=C2\N=C(N/N=C/c3ccccc3)NC2=O)cc1
Key: > 100 µM
